Below, each entry is listed alongside its reported composite Z-score.
experiment: small-molecule microarray binders of probe aXIP, primary screen, biochemical, NeuroSMM set, 635/667 nm fluorescence (AID 1119);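 note: probe is the protein aXip251-270 applied at 1 µg/mL to compound-printed slides; binding of probe to printed compounds measured as 667 nm fluorescence plus signal to noise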
cond: higher = more signal, called active from +8 up or from −8 down
// no unit, no text: just the number

Here's what some known entries look like.
CC(C)CON=C1C[C@@H](O)[C@@H](O)[C@@H]2[C@@H]3C(=O)N(Cc4ccccc4)C(=O)[C@@H]3CC[C@H]12 | -0.288
CO[C@@H](C1CCCCC1)[C@@H](C)[C@H](OCc1cccc(Br)c1)[C@@H](C)CO | -0.188
COCCNC(=O)OCC1CCCC2(CC(OC(=O)NCc3cccc4ccccc34)CC(CCC(=O)N[C@@H](C)C(=O)OC)O2)O1 (some centres undefined) | 0.59

Would you kindly look at the next entry?
Ask: Which composite Z-score is listed for "CCN1C(=O)[C@H]2[C@H]3[C@H](O)[C@H](O)CC(=NO[C@@H]4O[C@H](CO)[C@@H](O)[C@H](O)[C@H]4O)[C@H]3CC[C@H]2C1=O" ?
Reply: 0.121

* * *

experiment: CREB reporter modulators under forskolin, primary screen, cell-based, PC12, CRE-LacZ reporter, forskolin-stimulated (AID 1146);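 note: PC12 cells with 6xCRE LacZ reporter stimulated by forskolin 10 µM; beta-galactosidase reporter signal reflecting CREB driven transcription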
cond: luminescence, 4.5 h, higher = more signal, called active from +8 up or from −8 down
Decision: z-score compared against 0.06; not below it gives fulfilled, below it gives not fulfilled.

Ask: Given "CC=CC1=C(CO)[C@H](O)[C@H]2O[C@H]2[C@@H]1O" , state whether its z-score is at least 0.06.
Reply: fulfilled

Ask: Given "CC(=O)OC[C@H]1O[C@H](CCON=C(C)C)C=C[C@@H]1OC(C)=O" , state whether its z-score is at least 0.06.
Reply: fulfilled

* * *

experiment: adipocyte viability effects, profiling panel, cell-based, 3T3-L1 adipocytes, calcein-AM fluorescence, 48 h, basal (AID 1163); note: test concentration not given here
cond: 3T3-L1 adipocytes viability, higher = more signal
Below, each entry is listed alongside its reported z-score.
// no unit, no text: just the number

Here's what some known entries look like.
O=C1CCCC=C1C(O)C1CCCCC1 (stereo not given) | -0.464
C=CC[C@@H]1C=CC(ON=C(C)C)[C@@H](CO)O1 (stereo not given in full) | -0.521
C=CC[C@@H]1C=C[C@H](ON=CC[C@@H]2C=C[C@H](OC(C)=O)[C@@H](COC(C)=O)O2)[C@@H](CO)O1 | -0.5
O=C1C=C[C@@H](O)[C@@H]2[C@@H]3C(=O)N(C4CCCCC4)C(=O)[C@@H]3CC[C@@H]12 | 0.351

Would you kindly look at the next entry?
Ask: Which z-score is listed for "CON=C(C)CCN1CCCCc2nc(C)c(C)cc21" ?
Reply: -0.269

* * *

experiment: S. cerevisiae growth modulation with rapamycin, primary screen, strain BY4716, OD600, 96 h (AID 1091); note: test concentration not given here
cond: higher = more signal, called active from +8 up or from −8 down
observed_property: z-score
// no unit, no text: just the number

Here's what some known entries look like.
COc1ccc(O[C@H]2C=C[C@@H](c3ccccc3)O[C@@H]2CON=C(C)CCN2CCCc3nc(C)c(C)cc32)cc1 | -0.706
COC(=O)CC=C[C@@H](C)[C@@H](C=NOC(C)CN1CCCCc2nc(C)c(C)cc21)NS(=O)(=O)c1ccc(C)cc1 (some centres undefined) | 0.121
CC(CCC(=O)OC[C@H]1O[C@H](C#Cc2ccccc2)C=C[C@@H]1Oc1ccc(C)cc1)=NOC(C)CN1CCCc2nc(C)c(C)cc21 (some centres undefined) | -0.49

Would you kindly look at the next entry?
Ask: Which z-score is listed for "CCN1C(=O)[C@H]2[C@H]3[C@H](O)[C@H](O)CC(=NOCC(C)C)[C@H]3CC[C@H]2C1=O" ?
Reply: 0.512
